Data origin, for the record: a collection of fitness landscapes (doi:10.1126/science.1257360)

B1: PhoQ; a variant is named by its letters at X, in order, P23837 (parent)
chain: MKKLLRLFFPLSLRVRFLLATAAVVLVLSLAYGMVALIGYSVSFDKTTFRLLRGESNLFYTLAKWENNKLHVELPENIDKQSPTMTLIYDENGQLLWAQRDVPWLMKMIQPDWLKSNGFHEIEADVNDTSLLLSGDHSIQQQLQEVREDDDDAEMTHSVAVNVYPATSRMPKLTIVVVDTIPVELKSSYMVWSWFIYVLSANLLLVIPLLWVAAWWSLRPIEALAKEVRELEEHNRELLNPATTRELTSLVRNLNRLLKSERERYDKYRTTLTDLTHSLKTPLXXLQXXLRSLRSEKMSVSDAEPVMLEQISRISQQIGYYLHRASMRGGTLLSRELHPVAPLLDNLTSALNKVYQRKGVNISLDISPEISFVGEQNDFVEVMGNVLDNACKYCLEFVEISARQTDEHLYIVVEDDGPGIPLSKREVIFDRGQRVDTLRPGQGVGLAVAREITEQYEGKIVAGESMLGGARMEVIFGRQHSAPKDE

# Variants of: B1
# protocol-description: enrichment ratio after two sorts for PhoP signalling (ratio (wild type AVST 3.29)); higher = more functional
# test-context: with PhoP (E. coli)
The full ranking holds about 140,000 sequences; the median of “enrichment ratio after two sorts for PhoP signalling” is about 0, and the highest 2% start at about 11. This excerpt belongs to a sample that is enriched for the highest values.
Entries and their enrichment ratio

Here are 3 variants together with their reported answers.
> print(dat)
   mutant.name  result
1         SKIC    30.5
2         SKAM      28
3         SKSM      14

Recorded enrichment ratio of MSAK , please.
≤ 0.25

Query (variant): TRYF ; field requested: enrichment ratio
≤ 0.25

For the variant VGTA , what enrichment ratio is on record?
≤ 0.25

Dear colleague, I am looking for the recorded enrichment ratio of the following variant: SKSK
≤ 0.25

Sample SKRC — what was its enrichment ratio?
≤ 0.25

I'd like to know its enrichment ratio. The variant in question is ECVR
≤ 0.25

Fill in the blank: the reported enrichment ratio of PTHW is ____.
≤ 0.25
